Assay Comment: Polymorph screening study, summary of forms
Type: physicochemical
Condition Set: Table 12 summary
Quantity Name: Description (stability class of the polymorphic form)

[
  {
    "Molecule": "CCCCCCCCCCCCCCCCCC(=O)OCC(CCOC(=O)C(N)C(C)C)Cn1cnc2c(=O)[nH]c(N)nc21 (centres unmarked) [Form B2]",
    "Result": "Metastable Polymorph"
  },
  {
    "Molecule": "CCCCCCCCCCCCCCCCCC(=O)OCC(CCn1cnc2c(=O)[nH]c(N)nc21)COC(=O)C(N)C(C)C (centres unmarked) [Form B4]",
    "Result": "Metastable Polymorph"
  },
  {
    "Molecule": "CCCCCCCCCCCCCCCCCC(=O)OCC(CCn1cnc2c(=O)[nH]c(N)nc21)COC(=O)C(N)C(C)C (centres unmarked) [Form B3]",
    "Result": "Metastable Polymorph"
  },
  {
    "Molecule": "CCCCCCCCCCCCCCCCCC(=O)OCC(CCn1cnc2c(=O)[nH]c(N)nc21)COC(=O)C(N)C(C)C (centres unmarked) [Form B1]",
    "Result": "Metastable Polymorph"
  }
]

Origin of values: patent US9492456B2
